Biological target: regulatory RIIβ subunits of PKA (Rattus norvegicus, UniProt P12369)
Construct: Prof; Dr. Friedrich W. Herberg, University of Kassel, Germany (obtained from an academic laboratory, not a vendor)
Sequence (P12369 whole entry): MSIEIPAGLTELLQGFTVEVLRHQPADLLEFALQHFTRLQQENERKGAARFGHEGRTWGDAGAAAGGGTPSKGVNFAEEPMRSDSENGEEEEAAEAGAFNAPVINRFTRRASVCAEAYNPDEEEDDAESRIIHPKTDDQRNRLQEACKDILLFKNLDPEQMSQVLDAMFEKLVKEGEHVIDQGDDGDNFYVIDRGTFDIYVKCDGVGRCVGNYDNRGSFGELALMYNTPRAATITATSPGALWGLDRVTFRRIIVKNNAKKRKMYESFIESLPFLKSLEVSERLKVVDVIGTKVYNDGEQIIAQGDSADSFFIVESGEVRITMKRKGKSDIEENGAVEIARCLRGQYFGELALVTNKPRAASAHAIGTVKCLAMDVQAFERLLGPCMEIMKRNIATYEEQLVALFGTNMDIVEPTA
Assay: RII overlay of membrane-bound (SPOT) peptides, radiolabelled RIIβ as probe, densitometry
Type: binding
Conditions: in words
Text: Peptide libraries were synthesized by means of automatic SPOT synthesis on Whatman 50 cellulose membranes according to standard protocols using Fmoc chemistry and AutoSpot Robot ATE 222 (Intavis Bioanalytical Instruments AG, Cologne). […] For control, spots (about 50 nmol of peptide per spot) were cut from the cellulose membrane, removed from the membrane by treatment with 0.05 M NaOH, and analyzed using HPLC and MALDI-TOF mass spectrometry. […]

{"columns": ["substance", "binding to RIIβ subunits in RII overlay"],
 "data": [
  ["ANDARLVRLPKRLVENAVLKAVQQY [10/12]", "no RIIβ"],
  ["PEDAELVRLSKRDVENAVLKAVQQY [AKAP18δ-L308D]", "weaker"],
  ["ANDARLVRLNKRLVENAVLKAVQQY [10/11]", "no RIIβ"],
  ["EPEDAELVRLSKRLVENAVLKAVQQYLEETQ (listed as Homo sapiens) [AKAP18δ-RI]", "weaker"]
]}
